Source: PubChem BioAssay (NCI)

test system: HT29 colon; assay: NCI tumour cell line growth inhibition, 48 h
Answer each item with its documented TGI.

Reference set, count: 3
CCN(CC)CCOc1nc2ccc(OC)cc2c2c1-c1ccc(OC)cc1C2=O :: 1.86 µM
COC(=O)Cc1ccc2c(c1)Sc1ccc(CC(=O)OC)cc1N2C :: > 100 µM
CCOc1cc2ncc(C#N)c(Nc3ccc(OCc4cccc(F)c4)c(Cl)c3)c2cc1NC(=O)CC1CCSS1 (stereo unspecified) :: > 25 µM

Field: TGI. Fill in for each record below.
1. COc1ccc(N=C2CSc3nnc(-c4cc(F)c(Cl)cc4Cl)n3N2)cc1
2. CCOC(=O)c1ccc(NC(=O)N2CC(C)OC(C)C2)cc1 (stereo unspecified)
3. COC1=CC(=O)c2ccccc2C1(CCC=C(C)C)C1=NC(C)(C)CO1 (stereo unspecified)

## Result
["2.11 µM", "> 100 µM", "> 100 µM"]

* * *

Answer each item with its documented TGI.
system: SN12C renal; assay: NCI tumour cell line growth inhibition, 48 h

CNC(P(=O)([O-])[O-])P(=O)([O-])[O-].N.N.[Pt+2] :: > 100 µM
Cc1ccc([N+](=O)[O-])cc1S(=O)(=O)Nc1ccc(C2=NN(c3ccc([N+](=O)[O-])cc3[N+](=O)[O-])C(c3ccccc3)C2)cc1 (stereo not given) :: 33.2 µM
COc1cc2c3c(n(C)c(=O)c2cc1OC)-c1cc2c(cc1/C3=C\CCCCCN)OCO2 :: 18.4 µM
COc1cc(/C(C#N)=C/c2ccc3c(c2OC)OCO3)cc2c1OCO2 :: > 100 µM

Then this compound:
compound COc1ccc2c(c1)[nH]c(=O)c1c3cc(C)c(C)cc3cn21 , TGI observed: 1.74 µM

* * *

test system: HOP-92 NSCLC; experiment: NCI tumour cell line growth inhibition, 48 h
recorded_metric: TGI (µM)
Numbers only, in µM.

Reference set, count: 4
CC(C)(C)OC(=O)n1cc(C2CNC(=O)C23CCC(=O)N3Cc2ccccc2)c2ccccc21 (stereo not given) :: 26.7
c1ccc(CNc2c3c(nc4ccccc24)CCC3)cc1 :: 25.9
Cc1cc2c(cc1Cl)Sc1nnc(Nc3ccccc3)n1S2(=O)=O :: 28.8
O=C(CN1CCN(c2ncccn2)CC1)Nc1ccc(Cl)cc1C(=O)c1ccccc1Cl :: 75.1

Then this molecule:
molecule COc1ccc(Cl)cc1Nc1nc(C(F)(F)F)ccc1C(=O)N/N=C/c1c(Cl)cccc1Cl , TGI observed: 38.4

* * *

Answer each item with its documented TGI.
tested on: T-47D breast; assay: NCI tumour cell line growth inhibition, 48 h

Reference set, count: 3
CCOC(=O)c1ccc(NC(=O)N2CC(C)OC(C)C2)cc1 (centres undefined) :: > 100 µM
COc1cc2c(cc1C[N+](C)(C)CSc1ccccc1)-c1ccccc1CC2 :: 16.2 µM
COc1ccc2c(c1)OC(c1cccnc1)C(c1ccccc1)C2=O (centres undefined) :: > 100 µM

compound Cc1ccc([N+](=O)[O-])cc1S(=O)(=O)Nc1ccc(C2=NN(c3ccc([N+](=O)[O-])cc3[N+](=O)[O-])C(c3ccccc3)C2)cc1 (centres undefined) , TGI observed: > 100 µM

* * *

tested on: IGROV1 ovarian; assay: NCI tumour cell line growth inhibition, 48 h
recorded_metric: TGI

O=C1C(=O)N(C(=O)c2ccc(Cl)c(Cl)c2)c2ccccc21 :: > 100 µM
O=c1oc2cc(OS(=O)(=O)c3ccc(F)cc3)ccc2c2c1CCCCC2 :: > 100 µM
CN(C)C(=S)N/N=C\C=N/NC(=S)N(C)C :: > 100 µM
CC(=O)n1c(COS(C)(=O)=O)nc2ccccc21 :: > 100 µM
C=CCC(C)C12CCNC(Cc3ccc(O)cc31)C2C (configuration not stated) :: > 100 µM

Field: TGI. Fill in for each record below.
1. COC(=O)CCCc1ccc2c(c1)CC1(C2)Cc2cc3c(cc2C1)CCCC3
2. COc1cc([C@H]2c3cc4c(cc3O[C@@]3(O)COC(=O)[C@@H]23)OCO4)cc(OC)c1OC

## Result
1. > 100 µM
2. > 100 µM

Field: TGI. Fill in for each record below.
1. O=C(CCCCCCSc1nc(-c2ccccc2)cc(-c2ccc(Cl)cc2)n1)NO
2. CC[C@H](C)N(CCN)C(=O)c1cc2ccccc2c(-c2ccccc2Cl)n1
3. CCOC/N=C(/N)NC#N
4. Cc1ncc(CN=Cc2ccc(Cl)cc2)c(N)n1
5. CCOC(=O)c1c2c(n3ccc(NC(=O)CCN4CCCC4)cc13)C(=O)c1ncccc1C2=O
6. Cc1ccc(CNc2c3ccccc3nc3ccccc23)cc1
7. Oc1ccc(/C=C\c2nnc(/C=C\c3ccc(O)c(O)c3)s2)cc1O
8. COc1cc(OC)c2c(O)cc(CC(C)O)cc2c1 (configuration not stated)

## Result
1. 6.5 µM
2. 26.2 µM
3. > 100 µM
4. > 100 µM
5. 3.27 µM
6. 5.56 µM
7. 20.7 µM
8. > 100 µM

Field: TGI. Fill in for each record below.
1. Cc1cc(-c2ncc(CC(=O)Nc3ccc(-c4cnccn4)cn3)cc2C)ccn1
2. CCCCOC(=O)CNC(=O)OCCCCC#CC#CCCCCOC(=O)NCC(=O)OCCCC
3. COC(=O)C1CC2(CC3=C1CCCC3)OCCO2 (configuration not stated)
4. N/N=C(\C(=O)Nc1c(Cl)cc([N+](=O)[O-])cc1Cl)C(c1cnc2ccc([N+](=O)[O-])cc2n1)[N+](=O)[O-] (configuration not stated)
5. Cn1c(=O)c2c(nc(NCCCCl)n2CC(=O)O)n(C)c1=O
6. CN(C)c1ccc(/C=N/Nc2nc3ccccc3c(=O)n2-c2ccccc2)cc1

## Result
["> 100 µM", "> 100 µM", "> 100 µM", "> 100 µM", "> 100 µM", "> 100 µM"]

compound Oc1ccc(Cl)cc1C1=N/C(=N\CN2CCN(C/N=C3/N=C(c4cc(Cl)ccc4O)CC(c4ccccc4)N3)CC2)NC(c2ccccc2)C1 (configuration not stated) , TGI observed: > 100 µM
